Consider the following compounds; for each one, report its pIC50.
# TARGET OF ASSAY: human factor XIa (Homo sapiens)
# Construct: purchased Kordia
# Sequence (P03951 388-625 limits assumed): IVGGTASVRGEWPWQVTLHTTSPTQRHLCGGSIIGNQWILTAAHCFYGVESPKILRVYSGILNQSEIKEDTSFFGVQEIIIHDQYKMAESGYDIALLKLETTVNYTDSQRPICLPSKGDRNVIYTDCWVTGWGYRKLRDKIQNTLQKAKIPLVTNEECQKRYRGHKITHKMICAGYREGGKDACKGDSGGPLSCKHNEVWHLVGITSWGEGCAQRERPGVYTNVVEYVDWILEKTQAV
# Sequence (P03951 19-387 partner limits assumed): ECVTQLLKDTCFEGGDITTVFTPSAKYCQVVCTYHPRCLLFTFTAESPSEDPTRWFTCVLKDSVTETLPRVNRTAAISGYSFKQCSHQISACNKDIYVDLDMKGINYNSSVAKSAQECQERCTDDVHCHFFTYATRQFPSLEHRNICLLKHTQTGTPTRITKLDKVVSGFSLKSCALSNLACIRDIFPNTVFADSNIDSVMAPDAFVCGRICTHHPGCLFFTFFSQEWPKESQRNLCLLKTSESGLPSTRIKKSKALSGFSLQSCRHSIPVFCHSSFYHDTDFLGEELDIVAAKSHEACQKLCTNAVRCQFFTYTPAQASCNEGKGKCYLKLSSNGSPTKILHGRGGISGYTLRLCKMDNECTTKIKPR
# TEST NAME: Measurement of FXIa inhibition (fluorogenic peptide substrate)
# Type: biochemical
# PARTICULARS: human factor XIa from Kordia, substrate Boc-Glu(OBzl)-Ala-Arg-AMC, 30 min at 22° C.; read-out: IC50 (FXIa inhibition)
Where a name gives a salt, the structure may show the parent alone.
Worth noting: pIC50 values are minus log10 of concentrations stated in mol/L.

Entry Cc1nc(C(=O)NC2CCC(N(C)C)CC2)ccc1-c1ccc(C[C@H](NC(=O)[C@H]2CC[C@H](CN)CC2)C(=O)Nc2ccc3[nH]c(=O)[nH]c3c2)cc1 (some centres unmarked) [Example 27, hydrochloride] has what pIC50?
7.72

// query: Cc1cc(C(=O)N[C@@H]2CCCNC2=O)ncc1-c1ccc(C[C@H](NC(=O)[C@H]2CC[C@H](CN)CC2)C(=O)Nc2ccc3[nH]c(=O)[nH]c3c2)cc1 [Example 28, hydrochloride]
7.70

// query: Cc1nc(C(=O)N[C@H]2CCNC2)ccc1-c1ccc(C[C@H](NC(=O)[C@H]2CC[C@H](CN)CC2)C(=O)Nc2ccc(-c3nn[nH]n3)cc2)cc1 [Example 15, hydrochloride]
8.49

// query: Cc1cc(C(=O)NC2CC3COCC(C2)N3)ncc1-c1ccc(C[C@H](NC(=O)C2CCC(CN)CC2)C(=O)Nc2ccc(-c3nnn[nH]3)cc2)cc1 (some centres unmarked) [Example 11, hydrochloride]
8.28

// query: CCN(CC)CCCNC(=O)c1cc(C)c(-c2ccc(C[C@H](NC(=O)[C@H]3CC[C@H](CN)CC3)C(=O)Nc3ccc(-c4nnn[nH]4)cc3)cc2)cn1 [Example 9, hydrochloride]
8.28

// query: Cc1cc(C(=O)N2CCN(C)CC2)ncc1-c1ccc(C[C@H](NC(=O)[C@H]2CC[C@H](CN)CC2)C(=O)Nc2ccc(-c3nnn[nH]3)cc2)cc1 [Example 33, hydrochloride]
8.38

// query: Cc1cc(C(=O)NC2CNCC(F)(F)C2)ncc1-c1ccc(C[C@H](NC(=O)[C@H]2CC[C@H](CN)CC2)C(=O)Nc2ccc(-c3nnn[nH]3)cc2)cc1 (some centres unmarked) [Example 20, hydrochloride]
8.41

// query: Cc1cc(C(=O)N2CCNC(=O)C2)ncc1-c1ccc(C[C@H](NC(=O)[C@H]2CC[C@H](CN)CC2)C(=O)Nc2ccc(-c3nnn[nH]3)cc2)cc1 [Example 32, hydrochloride]
8.74

// query: Cc1nc(C(=O)NC2CCC2)ccc1-c1ccc(C[C@H](NC(=O)[C@H]2CC[C@H](CN)CC2)C(=O)Nc2ccc3[nH]c(=O)[nH]c3c2)cc1 [Example 37, hydrochloride]
7.89

// query: Cc1nc(C(=O)NC(C)C(F)(F)F)ccc1-c1ccc(C[C@H](NC(=O)[C@H]2CC[C@H](CN)CC2)C(=O)Nc2ccc3cn[nH]c3c2)cc1 (some centres unmarked) [Example 35, hydrochloride]
8.06

// query: Cc1cc(C(=O)Nc2ccn(C)n2)ncc1-c1ccc(C[C@H](NC(=O)[C@H]2CC[C@H](CN)CC2)C(=O)Nc2ccc(-c3nnn[nH]3)cc2)cc1 [Example 23, hydrochloride]
8.60

// query: Cc1cc(C(=O)NC2CC3CCC(C2)N3)ncc1-c1ccc(CC(NC(=O)C2CCC(CN)CC2)C(=O)Nc2ccc(-c3nnn[nH]3)cc2)cc1 (centres unmarked) [Example 10, hydrochloride]
8.52

// query: Cc1nc(C(=O)N[C@@H]2CCNC2=O)ccc1-c1ccc(C[C@H](NC(=O)[C@H]2CC[C@H](CN)CC2)C(=O)Nc2ccc(-c3nn[nH]n3)cc2)cc1 [Example 26, hydrochloride]
8.89

// query: CCN(CC)CCNC(=O)c1ccc(-c2ccc(C[C@H](NC(=O)[C@H]3CC[C@H](CN)CC3)C(=O)Nc3ccc(-c4nn[nH]n4)cc3)cc2)c(C)n1 [Example 3, hydrochloride]
8.25

This collection of values is drawn from patent US20160222056A1.
